- methodSummary: collision cross section in nitrogen (drift tube, single-field); higher = larger gas-phase ion size;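 also: chemical standards at 10 µM analysed by drift tube IMS-QTOF MS in about 3.95 torr nitrogen, mean of duplicate injections differing ≤1%, mass error below 10 ppm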
- details: ion type: [M-H]; ion source: ESI; ion mode: Negative
The reader will find reported collision cross section in nitrogen values listed item by item below.
Response body: numeric value in Å², unit text excluded.

The examples below pair each entry with its known result.
May I ask what collision cross section in nitrogen has been recorded for "c1coc(CNc2[nH]cnc3ncnc2-3)c1" ? 148.4

May I ask what collision cross section in nitrogen has been recorded for "O=C(Nc1ccc(F)cc1F)c1cccnc1Oc1cccc(C(F)(F)F)c1" ? 180.6

---
May I ask what collision cross section in nitrogen has been recorded for CCCC(CCC)C(=O)O [Sodium valproate] ? 137

May I ask what collision cross section in nitrogen has been recorded for "Oc1ccc(C2(c3ccc(O)cc3)c3ccccc3-c3ccccc32)cc1" ? 194.8

May I ask what collision cross section in nitrogen has been recorded for "O=C(O)[C@H](O)[C@@H](O)[C@H](O)[C@H](O)CO" ? 133.2
